System: COLO 205
experiment: Antiproliferative activity against human COLO205 cells harboring BRAF mutant/wild type KRAS/wild type PIK3CA after 72 hrs by CCK8 assay
statedConditions: COLO 205, 72 h
observable: IC50 (nM)

1: O=C(NOCCO)c1cc2ccoc2c(F)c1Nc1ccc(I)cc1F
2: O=C(NOC[C@H](O)CO)c1cc2c(c(F)c1Nc1ccc(I)cc1F)OCC2
[ask] Which is greater in IC50, the first item 1 or the second item 2 ? Answer with the label corresponding to your selection.
[reply] 2
(2: 7.2 nM, 1: 2.9 nM)

###

experiment: Clearance in Sprague-Dawley rat at 2 mg/kg, iv
Assay type: ADME, organism-based
statedConditions: in vivo
observable: clearance (mL/min/kg)

A: O=C(NOC[C@H](O)CO)c1cc2c(c(F)c1Nc1ccc(I)cc1F)OCC2
B: O=C(NOC(CO)CO)c1cc2ccoc2c(F)c1Nc1ccc(I)cc1F
[ask] Lab note: check whether A or B has the lower measured clearance. Answer with the label corresponding to your selection.
[reply] B
(B: 3.4 mL/min/kg, A: 73.6 mL/min/kg)
